testDetails: Octanol/water partition coefficient (logD7.4) by reversed-phase HPLC
cond: pH 7.4
observationType: chromatographic logD
Returns: the value as a bare number; no unit string appended.

What the record says about NC1CCc2cccc(-c3ccccc3)c2CC1=O (stereo not drawn) [21c] : chromatographic logD is 2.12

What the record says about NC1CCc2cccc(Br)c2CC1=O (stereo not drawn) [21b] : chromatographic logD is 1.28

What the record says about NC1CCc2c(Br)cccc2CC1=O (stereo not drawn) [21e] : chromatographic logD is 1.41

What the record says about NC1CCc2c(Br)ccc(-c3ccccc3)c2CC1=O (stereo not drawn) [21i] : chromatographic logD is 3.12

What the record says about NC1CCc2c(-c3ccccc3)ccc(Br)c2CC1=O (stereo not drawn) [21j] : chromatographic logD is 3.06

What the record says about NC1CCc2ccccc2CC1=O (stereo not drawn) [21a] : chromatographic logD is 0.54

What the record says about NC1CCc2c(ccc3ccccc23)CC1=O (stereo not drawn) [21g] : chromatographic logD is 1.67

What the record says about NC1CCc2c(Br)ccc(Br)c2CC1=O (stereo not drawn) [21h] : chromatographic logD is 2.48

What the record says about NC1CCc2c(cccc2-c2ccccc2)CC1=O (stereo not drawn) [21f] : chromatographic logD is 2.22
